These data points were gathered from ChEMBL document CHEMBL4834403.

target: CYP2D6 (Homo sapiens, UniProt P10635); test: Inhibition of CYP2D6 in human liver microsomes at 10 uM incubated for 10 mins in presence of NADPH by LC-MS/MS analysis relative to control; assay type: ADME
Sequence (P10635 whole entry): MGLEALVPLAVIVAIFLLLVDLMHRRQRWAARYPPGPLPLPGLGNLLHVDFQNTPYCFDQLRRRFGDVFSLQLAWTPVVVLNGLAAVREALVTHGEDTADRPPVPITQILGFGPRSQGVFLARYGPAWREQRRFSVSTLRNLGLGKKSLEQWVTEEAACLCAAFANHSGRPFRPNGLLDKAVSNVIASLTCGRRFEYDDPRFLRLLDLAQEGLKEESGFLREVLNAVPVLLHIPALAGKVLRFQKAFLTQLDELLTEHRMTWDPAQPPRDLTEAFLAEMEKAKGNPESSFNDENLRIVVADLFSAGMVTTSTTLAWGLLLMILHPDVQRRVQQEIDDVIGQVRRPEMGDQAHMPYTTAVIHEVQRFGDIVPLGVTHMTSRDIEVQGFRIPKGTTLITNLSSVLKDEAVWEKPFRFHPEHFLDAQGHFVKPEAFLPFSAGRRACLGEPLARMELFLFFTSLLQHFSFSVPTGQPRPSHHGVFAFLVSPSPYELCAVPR
outcome.measure: inhibition at 10 min, 10 µM
Give your result as the value with the unit written after it.

Qu. Could you share which inhibition at 10 min, 10 µM value was measured for COc1cc2nc(-c3ccc(C)o3)cc(NCC3CCN(c4ncc(C(=O)NO)cn4)CC3)c2cc1OC ?
Ans. 10.8%

----------
assay: Half life in BALB/c RAG2-/- gammaC-/- mouse at 10 mg/kg, ip measured up to 24 hrs by UPLC-triple quadrupole MS analysis; assay type: ADME, organism-based; conditions: in vivo
outcome.measure: half-life (h)
Only the number, expressed in h, is required.

Qu. Could you share which half-life value was measured for COc1cc2nc(-c3ccc(C)o3)cc(NCC3CCN(c4ncc(C(=O)NO)cn4)CC3)c2cc1OC ?
Ans. 3.8
